Each entry below carries its reported viability, T/C.
- System: 521955-158-R2-J5-PDC complex spheroid viability
- procedure-summary: Anticancer human tumor 521955-158-R2-J5-PDC patient-derived pancreatic carcinoma cell line growth inhibition [GQUAD]
- measurement-context: second compound 10 µM; first compound 0.0316 µM; active compounds read low
Please give a number only; it is taken to be in %.

Use the examples below as a reference point.
O=C(c1cc(Cc2n[nH]c(=O)c3ccccc23)ccc1F)N1CCN(C(=O)C2CC2)CC1 + Cc1cnc(CNC(=O)c2c(=O)c3ccc(N4CCCN(C)CC4)nc3n3c2sc2ccccc23)cn1: 21.2
COc1ncnc(C2CC2)c1-c1ncc2cnn(Cc3ccc(-c4nc(C(F)(F)F)cn4C(C)C)cc3)c2n1 + Cc1[nH]c2ccc(F)cc2c1-c1nc2c3cccnc3c3ncccc3c2[nH]1: 81.8

Now for another entry.
Looking up COc1cc(C2c3cc4c(cc3C(OC3OC5COC(C)OC5C(O)C3O)C3COC(=O)C23)OCO4)cc(OC)c1O (stereo not drawn) + Cc1[nH]c2ccc(F)cc2c1-c1nc2c3cccnc3c3ncccc3c2[nH]1 , I see its viability, T/C listed as 96.3

###

- System: 521955-158-R2-J5-PDC complex spheroid viability
- procedure-summary: Anticancer human tumor 521955-158-R2-J5-PDC cell line growth inhibition [GQUAD]; active = viability on the fitted dose curve at most 10% of control; inactive = the rest;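 note: spheroids exposed to agents for one week before reading; 100% = DMSO vehicle control viability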
- measurement-context: second compound 0.1 µM; first compound 3.16 µM
Assign a class; possible classes are active, inactive

Take a look at these entries with their results.
CC1COCCN1c1cc(C2(O)CC3CCC(C2)O3)c2cnn(-c3ccn[nH]3)c2n1 (stereo not given) + Cc1cnc(CNC(=O)c2c(=O)c3ccc(N4CCCN(C)CC4)nc3n3c2sc2ccccc23)cn1: inactive
CC(=O)O[C@H]1C(=O)[C@@]2(C)[C@H]([C@H](OC(=O)c3ccccc3)[C@]3(O)C[C@H](OC(=O)[C@H](O)[C@@H](NC(=O)c4ccccc4)c4ccccc4)C(C)=C1C3(C)C)[C@]1(OC(C)=O)CO[C@@H]1C[C@@H]2O + CN(C)c1ccc(Nc2c3ccc(NC(=O)CCN4CCCC4)cc3nc3cc(NC(=O)CCN4CCCC4)ccc23)cc1: inactive
O=C(c1cc(Cc2n[nH]c(=O)c3ccccc23)ccc1F)N1CCN(C(=O)C2CC2)CC1 + CN(C)c1ccc(Nc2c3ccc(NC(=O)CCN4CCCC4)cc3nc3cc(NC(=O)CCN4CCCC4)ccc23)cc1: inactive
Cc1cccc(N(C)C(=O)C2C(O)CCN2c2nc(C)cc(C(F)(F)F)c2C#N)c1 (stereo not given) + Cc1[nH]c2ccc(F)cc2c1-c1nc2c3cccnc3c3ncccc3c2[nH]1: inactive
CC1COCCN1c1cc(C2(S(C)(=N)=O)CC2)nc(-c2ccnc3[nH]ccc23)n1 (stereo not given) + CN(C)c1ccc(Nc2c3ccc(NC(=O)CCN4CCCC4)cc3nc3cc(NC(=O)CCN4CCCC4)ccc23)cc1: inactive
CC(C)n1c(=O)n(C)c2cnc3cc(F)c(-c4ccc(OCCCN5CCCCC5)nc4)cc3c21 + CN(C)c1ccc(Nc2c3ccc(NC(=O)CCN4CCCC4)cc3nc3cc(NC(=O)CCN4CCCC4)ccc23)cc1: inactive
O=C(NO)c1cnc(N2CCN(S(=O)(=O)c3ccc4ccccc4c3)CC2)nc1 + Cc1[nH]c2ccc(F)cc2c1-c1nc2c3cccnc3c3ncccc3c2[nH]1: active
CCCS(=O)(=O)Nc1ccc(F)c(C(=O)c2c[nH]c3ncc(-c4ccc(Cl)cc4)cc23)c1F + Cc1[nH]c2ccc(F)cc2c1-c1nc2c3cccnc3c3ncccc3c2[nH]1: inactive

Could you please tell me the result logged for Nc1ccn(C2OC(CO)C(O)C2(F)F)c(=O)n1 (stereo not given) + Cc1cnc(CNC(=O)c2c(=O)c3ccc(N4CCCN(C)CC4)nc3n3c2sc2ccccc23)cn1 in this assay?
active

Could you please tell me the result logged for COc1cc(C2c3cc4c(cc3C(OC3OC5COC(C)OC5C(O)C3O)C3COC(=O)C23)OCO4)cc(OC)c1O (stereo not given) + Cc1cnc(CNC(=O)c2c(=O)c3ccc(N4CCCN(C)CC4)nc3n3c2sc2ccccc23)cn1 in this assay?
inactive

Reference source for all entries: PubChem BioAssay AID2060495
